// provenance: patent US20170088632A1

Measured Functional IC50, C3b deposition, human serum Exp #2 by item
biological target: human MASP-2 (human, UniProt O00187 16-686); assay: cell-based or functional assay
Sequence (O00187 16-686): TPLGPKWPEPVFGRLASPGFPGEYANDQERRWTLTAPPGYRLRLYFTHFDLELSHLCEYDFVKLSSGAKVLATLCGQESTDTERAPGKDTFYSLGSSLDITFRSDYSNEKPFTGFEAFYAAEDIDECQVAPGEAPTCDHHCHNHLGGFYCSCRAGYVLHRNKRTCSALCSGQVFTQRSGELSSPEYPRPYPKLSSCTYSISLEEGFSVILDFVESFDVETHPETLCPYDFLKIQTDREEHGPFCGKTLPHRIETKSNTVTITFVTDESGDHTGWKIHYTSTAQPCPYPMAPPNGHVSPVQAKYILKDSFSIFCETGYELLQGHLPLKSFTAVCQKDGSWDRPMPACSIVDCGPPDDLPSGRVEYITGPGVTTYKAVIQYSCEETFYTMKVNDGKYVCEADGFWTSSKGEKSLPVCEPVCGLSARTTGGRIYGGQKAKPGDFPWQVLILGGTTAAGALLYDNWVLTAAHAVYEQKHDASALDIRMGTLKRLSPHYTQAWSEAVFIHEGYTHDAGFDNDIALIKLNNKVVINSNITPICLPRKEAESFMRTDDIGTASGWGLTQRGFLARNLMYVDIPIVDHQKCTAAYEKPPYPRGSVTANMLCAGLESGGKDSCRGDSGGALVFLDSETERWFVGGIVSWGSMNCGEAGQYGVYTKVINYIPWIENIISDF
outcome measure: Functional IC50, C3b deposition, human serum Exp #2

binder	result
scFv mother clone 4D9 (scFv, also called 4D9 (18L16)) scFv: QITLKESGPVLVKPTETLTLTCTVSGFSLSNARMGVSWIRQPPGKALEWLAHIFSNDEKSYSTSLKSRLTISKDTSKSQVVLTMTNMDPVDTATYYCARMRYSSSLYGMDVWGQGTRVTVSSKLSGSASAPKLEEGEFSEARVSYELIQPPSVSVSPGQTASITCSGDKLGDKYVSWYQQKPGRSPVLVIYRDTKRPSGIPERFSGSNSGNTATLTISGTQAMDEADYYCQAWDSSTVVFGGGTKLTVLAAAGSEQKLISEEDLNSHHHHHH	46.3 nM
scFv mother clone 17N16 (scFv, also called 17N16mc; 17N16m) scFv: QVQLQQSGPGLVKPSQTLSLTCAISGDSVSSTSAAWNWIRQSPSRGLEWLGRTYYRSKWYNDYAVSVKSRITINPDTSKNQFSLQLNSVTPEDTAVYYCARDPFGVPFDIWGQGTMVTVSSKLSGSASAPKLEEGEFSEARVSYVLTQPPSVSVAPGQTARITCGGNNIGSKNVHWYQQKPGQAPVLVVYDDSDRPSGIPERFSGSNSGNTATLTVSRVEAGDEADYYCQVWDTTTDHVVFGGGTKLTVLAAAGSEQKLISEEDLNSHHHHHH	65.4 nM
